Biological target: human heart chymase (Homo sapiens, UniProt P23946)
Sequence (P23946 22-247): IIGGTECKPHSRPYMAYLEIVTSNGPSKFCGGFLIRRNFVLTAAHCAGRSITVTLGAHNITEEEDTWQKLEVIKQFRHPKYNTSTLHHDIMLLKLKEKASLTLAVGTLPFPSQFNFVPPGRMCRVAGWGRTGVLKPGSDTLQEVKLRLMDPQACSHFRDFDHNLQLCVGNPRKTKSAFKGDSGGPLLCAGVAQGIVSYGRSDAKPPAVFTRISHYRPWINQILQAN
Assay: biochemical
Settings: Chymase inhibitive activity (IC50), Ang I substrate, 37° C., 30 min, pH 7.5
REPORTED ENDPOINT: IC50 (nM)

// IC50 value for Cc1ccc(S(=O)(=O)n2c(=O)[nH]c3cc(Cl)ccc3c2=O)cc1C : 1600

// IC50 value for CC(C)(C)OC(=O)Cn1c(=O)n(S(=O)(=O)c2ccc(Cl)cc2)c(=O)c2ccc(Cl)cc21 : 6300

P: O=c1[nH]c2cc(Cl)ccc2c(=O)n1S(=O)(=O)c1ccc([N+](=O)[O-])cc1
Q: O=C(O)CCCOc1ccc(NC(=O)Cn2c(=O)n(S(=O)(=O)c3ccc(Cl)cc3)c(=O)c3ccc(Cl)cc32)cc1
R: N[C@@H](CC(=O)NCc1ccc(NC(=O)Cn2c(=O)n(S(=O)(=O)c3ccc(Cl)cc3)c(=O)c3ccc(Cl)cc32)cc1)C(=O)O
Query block: Write the entries in order, lowest recorded IC50 first. # list labels per requested ordering
Result block: Q, R, P

I: NCc1ccc(NC(=O)Cn2c(=O)n(S(=O)(=O)c3ccc(Cl)cc3)c(=O)c3ccc(Cl)cc32)cc1
II: COc1cccc2c(=O)n(S(=O)(=O)c3ccc(Cl)cc3)c(=O)[nH]c12
Query block: Could you determine which record has the numerically smaller IC50? Candidates: I and II Kindly give the label for the entry you pick.
Result block: I

---

Biological target: human heart chymase (Homo sapiens, UniProt P23946)
Assay: biochemical
Settings: Chymase inhibitive activity (IC50), Ang I substrate, 37° C., 30 min, pH 7.5
REPORTED ENDPOINT: IC50 (nM)

Would you please look over these solved cases?
// IC50 value for N#Cc1ccc(Cn2c(=O)n(S(=O)(=O)c3ccc(Cl)cc3)c(=O)c3ccc(Cl)cc32)cc1 [Example 60] : 340

// IC50 value for O=C(Cn1c(=O)n(S(=O)(=O)c2ccc(Cl)cc2)c(=O)c2ccc(Cl)cc21)Nc1cccc2ncccc12 [Example 91] : 180

// IC50 value for O=C(Cn1c(=O)n(S(=O)(=O)c2ccc(-c3cc[nH]n3)cc2)c(=O)c2ccc(Cl)cc21)Nc1cccnc1 [Example 121] : 340

// IC50 value for O=C(Cn1c(=O)n(S(=O)(=O)c2ccc(Cl)cc2)c(=O)c2ccc(Cl)cc21)Nc1ccc(N2CCNCC2)cc1 [Example 93] : 390

A: O=C(Cn1c(=O)n(S(=O)(=O)c2ccc(Cl)cc2)c(=O)c2ccc(Cl)cc21)Nc1ccc(C(=O)O)cc1 [Example 43]
B: O=C(Cn1c(=O)n(S(=O)(=O)c2ccc(Cl)cc2)c(=O)c2ccc(Cl)cc21)NCc1ccncc1 [Example 81]
C: O=C(Cn1c(=O)n(S(=O)(=O)c2ccc(Cl)cc2)c(=O)c2ccc(Cl)cc21)Nc1cccc(O)c1 [Example 40]
Query block: Order the items by recorded IC50; the first position goes to the largest value. # list labels per requested ordering
Result block: A, B, C
(A: 420 nM, B: 220 nM, C: 110 nM)

---

Molecular target: human heart chymase (Homo sapiens, UniProt P23946)
Test: biochemical
Conditions: Chymase inhibitive activity (IC50), Ang I substrate, 37° C., 30 min, pH 7.5
REPORTED ENDPOINT: IC50 (nM)

// IC50 value for O=C(O)c1cccc(Cn2c(=O)n(S(=O)(=O)c3ccc(Cl)cc3)c(=O)c3ccc(Cl)cc32)c1 : 240

a: CC[n+]1cccc(NC(=O)Cn2c(=O)n(S(=O)(=O)c3ccc(C)cc3)c(=O)c3ccc(Cl)cc32)c1
b: O=C(Cn1c(=O)n(S(=O)(=O)c2ccc(Cl)cc2)c(=O)c2ccc(Cl)cc21)Nc1ccc2[nH]ccc2c1
c: O=C(Cn1c(=O)n(S(=O)(=O)c2ccc(Cl)cc2)c(=O)c2ccc(Cl)cc21)NCc1ccccc1
Query block: Order the items by recorded IC50; the first position goes to the largest value. # list labels per requested ordering
Result block: a, c, b
